Where these numbers come from: PubChem BioAssay (Tox21)

# run-description: A CellTox Green Cytotoxicity Assay to monitor cytotoxicity in HepG2 cells - 16 hour (AID 1224876); note: nearly all actives have a fitted effect of over 45% in size
# conditions-used: CellTox Green fluorescence; series mostly up to 76.8 µM
Results filed as inconclusive are left out. Calls of active or inactive are those of the source. Calls come from the whole dose curve; as a rule, active = well fitted activation curve with a large enough effect in the repeat runs; inconclusive = weak or mixed curves; inactive = flat fitted curve, though single readings scatter.
Please reply with one of these outcomes: 1 (yes) (active), 0 (no) (inactive)

molecule	assigned-class
CCCCCCCCCCCCCCCCC(=O)O	0 (no)

Query: Each molecule tested received a call. Report the one for `OCCOc1cccc(OCCO)c1` .
Result: 0 (no)

Query: Hi, do you know how `CCOC(OCC)OCC` came out in this test?
Result: 0 (no)

Query: // return assay outcome for `CCCC(=O)OCc1ccccc1`
Result: 0 (no)

Query: Look up the recorded call for C/C(=C\C(C)CC(C)CC(C)C)C1CC(=O)OC1=O (stereo unspecified) in this test.
Result: 0 (no)

Query: What did this assay record as the result for `C=C[Si](OCC)(OCC)OCC` ?
Result: 0 (no)

Query: What is the recorded call for this molecule in the test? CCCCCCCCCC(C)C=O (stereo unspecified)
Result: 1 (yes)

Query: Answer briefly: the call reported for COc1ccnc2c1CCCCC2S(=O)c1nc2ccccc2[nH]1 (stereo unspecified) in this assay.
Result: 0 (no)

Query: Returns: the outcome recorded for `CCOc1cc(OCC)c(C(C)=O)cc1OCC` in this assay.
Result: 0 (no)

Query: # outcome recorded in this test, key = CCc1c(C)[nH]c2c1C(=O)C(CN1CCOCC1)CC2 (stereo unspecified)
Result: 0 (no)

Query: What was the test verdict on `Cc1cccc(C)c1NC(=O)CN1CCCC1` ?
Result: 0 (no)

Query: Assay result, entry `CC1=C(C)C(=O)C(CCCCC#CCCCC#CCO)=C(C)C1=O` — outcome?
Result: 0 (no)

Query: What did the test return for `O=C1C=CCCC1` ?
Result: 0 (no)

Query: Per the records of this test, what outcome belongs to O=C1OC(=O)C2CC=CCC12 (stereo unspecified) ?
Result: 0 (no)

Query: What was the test verdict on `O=C(O)c1cc(C(=O)O)cc([N+](=O)[O-])c1` ?
Result: 0 (no)

Query: Lab log entry: FC1(F)C(F)(F)C(F)(F)C2(F)C(F)(C1(F)F)C(F)(F)C(F)(F)C1(F)C(F)(F)C(F)(F)C(F)(F)C(F)(F)C12F (stereo unspecified) — outcome as called in the assay?
Result: 0 (no)
